Where do the numbers come from? From the supplement of paper PMC7125110.

B1: glmS ribozyme (parent)
chain: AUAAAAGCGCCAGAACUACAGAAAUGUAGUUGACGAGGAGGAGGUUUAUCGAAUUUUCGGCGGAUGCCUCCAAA

- Variants of: B1
- procedure details: self-cleavage kobs at 640 uM GlcN6P; higher = faster cleavage; RNA array
- study conditions: with glucosamine-6-phosphate
This sample holds only a part of the variants without activity.
property label: self-cleavage kobs at 640 uM GlcN6P

>>> value_observed("G62A U65G")
"< 1e-05 s⁻¹"
>>> value_observed("A14G A33U G44U U47C G63U")
"< 1e-05 s⁻¹"
>>> value_observed("C16A G35C")
"< 1e-05 s⁻¹"
>>> value_observed("A48U U69C")
"7.15e-05 s⁻¹"
>>> value_observed("G41U G44C")
"< 1e-05 s⁻¹"
>>> value_observed("A6C A33G")
"< 1e-05 s⁻¹"
>>> value_observed("U30A A52C")
"< 1e-05 s⁻¹"
>>> value_observed("U47A U54G C68G")
"6.48e-05 s⁻¹"
>>> value_observed("C50A C70A")
"3.8e-05 s⁻¹"
>>> value_observed("C11G U47G C50A C70G")
"0.000245 s⁻¹"
>>> value_observed("C8U U47C C67G")
"< 1e-05 s⁻¹"
>>> value_observed("U47A U55G")
"0.00869 s⁻¹"
>>> value_observed("A6U C8U A15U G32C C34A C61G")
"< 1e-05 s⁻¹"
>>> value_observed("G7U U55A")
"< 1e-05 s⁻¹"
>>> value_observed("A12U U57C C61A")
"< 1e-05 s⁻¹"
>>> value_observed("G9C U65C C68U")
"< 1e-05 s⁻¹"
>>> value_observed("G29U A53C G62C")
"< 1e-05 s⁻¹"
>>> value_observed("C8A A33U U55G")
"< 1e-05 s⁻¹"
>>> value_observed("G38A G40U")
"< 1e-05 s⁻¹"
>>> value_observed("U30C C34U U57A")
"< 1e-05 s⁻¹"
>>> value_observed("A6C U45A")
"3.95e-05 s⁻¹"
>>> value_observed("G41U U55C")
"6.02e-05 s⁻¹"
>>> value_observed("U30G A53C")
"0.000512 s⁻¹"
